readout-name: melting point

COc1cc2c(cc1O)CCN(Cc1ccccc1)C2 [compound 38]: 134 to 135 °C
COc1cc2c(cc1O)CCN(C(=O)c1ccccc1OC)C2=O [compound 138]: 199 to 200 °C
COc1cc2c(cc1O)CCN(C(=O)c1cc(OC)c(OC)c(OC)c1)C2=O [compound 143]: 175 to 176 °C
COc1cc(OC)c(CN2CCc3cc(OCc4ccccc4)c(OC)cc3C2)c(OC)c1 [F2]: 129 to 131 °C
COc1cc2c(cc1O)C(O)CN(Cc1cc(OC)c(OC)c(OC)c1)C2 (stereo not drawn) [F29]: 62 to 63 °C
COc1ccc(CN2Cc3cc(OC)c(O)cc3C(OC)C2)cc1 (stereo not drawn) [F32]: 84 to 85 °C
COc1ccccc1COc1cc2c(cc1OC)C(=O)N(Cc1ccccc1OC)CC2 [compound 156]: 133 to 134 °C
COc1cccc(CN2Cc3cc(OC)c(O)cc3C(O)C2)c1 (stereo not drawn) [F28]: 137 to 138 °C
COc1ccc(C(=O)N2CCc3cc(O)c(OC)cc3C2=O)cc1 [compound 140]: 224 to 225 °C
COc1cc2c(cc1O)CCN(Cc1cccc([N+](=O)[O-])c1)C2 [compound 66]: 127 to 128 °C
COc1cc2c(cc1O)CCN(Cc1cccnc1)C2 [compound 47]: 165 to 166 °C
COc1cc2c(cc1OCc1ccccc1)CCN(Cc1cc(OC)c(OC)c(OC)c1)C2=O [compound 158]: 136 to 137 °C
COc1ccc(CCN2CCc3cc(OCc4ccccc4)c(OC)cc3C2)cc1 [compound 14]: 88 to 89 °C
COc1cc2c(cc1OCc1ccccc1)CCN(Cc1cccc(O[Si](C(C)C)(C(C)C)C(C)C)c1)C2: 78 to 79 °C
COc1cc(OC)cc(C(=O)N2CCc3cc(OCc4ccccc4)ccc3C2=O)c1 [compound 132]: 158 to 159 °C
COc1cc2c(cc1OCc1ccccc1)CCC(=O)N2Cc1cc(OC)c(OC)c(OC)c1 [compound 289]: 129 to 130 °C
COc1cccc(S(=O)(=O)N2CCc3cc(O)c(OC)cc3C2=O)c1 [compound 201]: 195 to 197 °C
COc1cc(CN2CCc3cc(OCc4ccccc4)c(OC)cc3C2)cc(OC)c1 [compound 6]: 95 to 96 °C
